TESTED_SYSTEM: KDM4E (Homo sapiens)
Construct: His6 (N); made in house; host or cells: Escherichia coli
Sequence (B2RXH2 1-337): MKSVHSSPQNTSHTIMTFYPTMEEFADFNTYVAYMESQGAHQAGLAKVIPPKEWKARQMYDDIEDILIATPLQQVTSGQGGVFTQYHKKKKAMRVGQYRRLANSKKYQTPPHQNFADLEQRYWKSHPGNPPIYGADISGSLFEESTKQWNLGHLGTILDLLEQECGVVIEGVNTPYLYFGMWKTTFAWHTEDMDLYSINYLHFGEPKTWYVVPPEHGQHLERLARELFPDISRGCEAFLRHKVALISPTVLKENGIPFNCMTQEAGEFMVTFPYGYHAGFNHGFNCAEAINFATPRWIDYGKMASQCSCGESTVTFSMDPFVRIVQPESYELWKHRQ
EXPERIMENT: MALDI MS activity assay, recombinant KDM4E catalytic domain
Format: biochemical
CONDITION_DESCRIPTION: KDM4E 2 μM, peptide 10 μM, 1 h, 37 °C, 2OG 200 μM, ascorbate 100 μM, Fe(II) 10 μM, 50 mM HEPES pH 7.5; MALDI-TOF MS, −14 Da shift
PROPERTY_MEASURED: observed arginine demethylation activity

Field: example entries. Status: answers known.
{"columns": ["SUBSTANCE", "MEASUREMENT"],
 "data": [
  ["SG-Rme2s-GKGGKGLGKGGA [H4 (1–15) R3me2s, 'natural' histone H4 residues 1-15 peptide symmetrically dimethylated at R3]", "+"],
  ["SG-Rme-GKGGKGLGKGGAK [H4 (1–15) R3me, 'natural' histone H4 peptide monomethylated at R3]", "−"],
  ["SG-Rme2a-GKGGKGLGKGGA [H4(1-15)R3me2a, 'natural' histone H4 residues 1-15 peptide asymmetrically dimethylated at R3]", "+"],
  ["KQLATKAA-Rme2a-KSAPAT [H3 (18–32) R26me2a, 'natural' histone H3 peptide asymmetrically dimethylated at R26]", "+"]
]}

Exam item: Could you share which observed arginine demethylation activity value was measured for KQLATKAA-Rme-KSAPAT [H3 (18–32) R26me, 'natural' histone H3 peptide monomethylated at R26] ?
Marked response: +

Exam item: Could you share which observed arginine demethylation activity value was measured for STGGKAP-Rme2a-KQLATKA [H3 (10–24) R17me2a, 'natural' histone H3 peptide asymmetrically dimethylated at R17] ?
Marked response: −
